Experiment: Rat liver microsome stability assay
Conditions: Sprague-Dawley, rat, microsomes, RLM Rel % remaining, 37 °C, 10 min
reported.endpoint: remaining at 10 min, 3 µM (%)
One number for each entry, in %.

Please review the entries below; each comes with its answer.
# test.smiles, unit.spec, remaining at 10 min, 3 µM
rows = [
    ("O=c1[nH]cccc1-c1cn(-c2cc(Cl)cc(OCCC(F)(F)F)c2)c(=O)n(-c2cccnc2)c1=O", "%", 90.9),
    ("O=c1[nH]cccc1-c1cn(-c2cc(Cl)cc(OCc3nccn3C(F)F)c2)c(=O)n(-c2cccnc2)c1=O", "%", 95.2),
]

Then there is this compound:
For "O=c1[nH]cccc1-c1cn(-c2cc(Cl)cc(OCc3ccccc3Cl)c2)c(=O)n(-c2cccnc2)c1=O" , what is its reported remaining at 10 min, 3 µM? 55.3

====

Kindly state IC50 for each of the entries shown.
Biological target: SARS-CoV-2 Mpro (3CLpro) (Severe acute respiratory syndrome coronavirus 2, UniProt P0DTD1)
Test: SARS-CoV-2 recombinant protease enzymatic assay (FRET)
Conditions: recombinant Mpro, FRET peptide substrate
Give bare numbers, in nM.

Some compounds with recorded IC50:
# test.smiles, val
data = [
    ("O=c1[nH]cccc1-c1cn(-c2cc(Cl)cc(OCc3nccn3C(F)F)c2)c(=O)n(-c2cccnc2)c1=O", 13),
    ("Cc1scnc1COc1cc(Cl)cc(-n2cc(-c3ccc(=O)[nH]c3)c(=O)n(-c3cccnc3)c2=O)c1", 120),
    ("O=c1[nH]cccc1-c1cn(-c2cc(Cl)cc(OCC3CC3)c2)c(=O)n(-c2cccnc2)c1=O", 100),
]

Look at this compound and give its reported IC50. "Cc1nc(C)c(COc2cc(Cl)cc(-n3cc(-c4ccc[nH]c4=O)c(=O)n(-c4cccnc4)c3=O)c2)s1" 16

====

Experiment: Rat liver microsome stability assay
Conditions: Sprague-Dawley, rat, microsomes, RLM Rel % remaining, 37 °C, 5 min
Answer each item with its documented remaining at 5 min, 3 µM.
Give bare numbers, in %.

Examples from the recorded data:
# test.smiles, val
rows = [
    ("O=c1[nH]cccc1-c1cn(-c2cc(Cl)cc(OCCC(F)(F)F)c2)c(=O)n(-c2cccnc2)c1=O", 95.4),
    ("O=c1[nH]cccc1-c1cn(-c2cc(Cl)cc(OCc3ccccc3Cl)c2)c(=O)n(-c2cccnc2)c1=O", 71.1),
]

# context switch: different compound, same remaining at 5 min, 3 µM
For "O=c1[nH]cccc1-c1cn(-c2cc(Cl)cc(OCc3nccn3C(F)F)c2)c(=O)n(-c2cccnc2)c1=O" , what is its reported remaining at 5 min, 3 µM? 97.6

====

Assay: Mouse liver microsome stability assay
Conditions: CD-1, mouse, microsomes
For each entry below, report its remaining at 5 min, 3 µM value.
One number for each entry, in %.

Examples with answers:
# test.smiles, remaining at 5 min, 3 µM (%)
records = [
    ("O=c1[nH]cccc1-c1cn(-c2cc(Cl)cc(OCc3ccccc3Cl)c2)c(=O)n(-c2cccnc2)c1=O", 22.8),
    ("O=c1[nH]cccc1-c1cn(-c2cc(Cl)cc(OCc3ncsc3C(F)(F)F)c2)c(=O)n(-c2cccnc2)c1=O", 54.6),
    ("O=c1[nH]cccc1-c1cn(-c2cc(Cl)cc(OCCC(F)(F)F)c2)c(=O)n(-c2cccnc2)c1=O", 93.9),
]

Continue with the next molecule.
Query: remaining at 5 min, 3 µM; subject: "O=c1[nH]cccc1-c1cn(-c2cc(Cl)cc(OCc3nccn3C(F)F)c2)c(=O)n(-c2cccnc2)c1=O" 63.8

====

Experiment: Pharmacokinetics after single IV and PO administration
Assay type: in vivo, Male Sprague Dawley rats
Conditions: male, Sprague-Dawley, rat; plasma, PO 0.5 mg/kg
reported.endpoint: AUC(0-t) (ng·h/mL)
One number for each entry, in ng·h/mL.

# lookup: AUC(0-t) of "O=c1[nH]cccc1-c1cn(-c2cc(Cl)cc(OCCC(F)(F)F)c2)c(=O)n(-c2cccnc2)c1=O" 1310

====

Test: Human liver microsome stability assay
Settings: human, microsomes
reported.endpoint: remaining at 0.25 h, 3 µM (%)
Answers are plain numbers, in %.

# molecule, remaining at 0.25 h, 3 µM [%]
rows = [
    ("O=c1[nH]cccc1-c1cn(-c2cc(Cl)cc(OCCC(F)(F)F)c2)c(=O)n(-c2cccnc2)c1=O [Compound 36]", 98.2),
    ("O=c1[nH]cccc1-c1cn(-c2cc(Cl)cc(OCc3ncsc3C(F)(F)F)c2)c(=O)n(-c2cccnc2)c1=O [Compound 45]", 48.5),
    ("O=c1[nH]cccc1-c1cn(-c2cc(Cl)cc(OCc3nccn3C(F)F)c2)c(=O)n(-c2cccnc2)c1=O [Compound 41]", 66.4),
]

I have this molecule here, O=c1[nH]cccc1-c1cn(-c2cc(Cl)cc(OCc3ccccc3Cl)c2)c(=O)n(-c2cccnc2)c1=O [Compound 43] , and I need its recorded remaining at 0.25 h, 3 µM. 70.7

====

Assay: in vitro
Settings: CD-1, mouse, microsomes
reported.endpoint: remaining at 10 min, 3 µM (%)
Answers are plain numbers, in %.

May I ask what remaining at 10 min, 3 µM has been recorded for "Cn1cc(-c2cc(-c3cc(Cl)c(F)c(OCc4ccccc4Cl)c3)c(=O)n(-c3cccnc3)c2)c(=O)[nH]c1=O" ? 5.25

====

For each record, write down the corresponding half-life at 3 µM.
Assay: Human liver microsome stability assay
Details: human, microsomes
One number for each entry, in min.

# molecule, reported.endpoint, val
data = [
    ("O=c1[nH]cccc1-c1cn(-c2cc(Cl)cc(OCc3ncsc3C(F)(F)F)c2)c(=O)n(-c2cccnc2)c1=O [Compound 45]", "half-life at 3 µM", 13),
]

Below: the item to evaluate.
Value lookup for half-life at 3 µM; key = O=c1[nH]cccc1-c1cn(-c2cc(Cl)cc(OCc3ccccc3Cl)c2)c(=O)n(-c2cccnc2)c1=O [Compound 43] 27.8

====

Assay: Oral dose escalation pharmacokinetics (10 and 100 mg/kg PO)
Type: in vivo, rat
Details: rat plasma, PO 100 mg/kg, mean ± SD, n = 3
reported.endpoint: AUC(0-inf) (µM·h)
One number for each entry, in µM·h.

Data request, read-out AUC(0-inf), for "O=c1[nH]cccc1-c1cn(-c2cc(Cl)cc(OCCC(F)(F)F)c2)c(=O)n(-c2cccnc2)c1=O" 49.9

====

Experiment: Human liver microsome stability assay
Details: human, microsomes
Give remaining at 10 min, 3 µM for every item shown.
One number for each entry, in %.

# compound, val
measured = [
    ("O=c1[nH]cccc1-c1cn(-c2cc(Cl)cc(OCc3ncsc3C(F)(F)F)c2)c(=O)n(-c2cccnc2)c1=O [Compound 45]", 49.9),
    ("O=c1[nH]cccc1-c1cn(-c2cc(Cl)cc(OCc3ccccc3Cl)c2)c(=O)n(-c2cccnc2)c1=O [Compound 43]", 76.9),
    ("O=c1[nH]cccc1-c1cn(-c2cc(Cl)cc(OCCC(F)(F)F)c2)c(=O)n(-c2cccnc2)c1=O [Compound 36]", 97.7),
]

Can you look up the measured remaining at 10 min, 3 µM of O=c1[nH]cccc1-c1cn(-c2cc(Cl)cc(OCc3nccn3C(F)F)c2)c(=O)n(-c2cccnc2)c1=O [Compound 41] for me? 84.4

====

Assay: Pharmacokinetics after single IV and PO administration
Format: in vivo, Male Sprague Dawley rats
Conditions: male, Sprague-Dawley, rat; plasma, IV 0.25 mg/kg; read-out: Vss
reported.endpoint: Vd (L/kg)
Give bare numbers, in L/kg.

Any idea what its Vd is? The compound is "O=c1[nH]cccc1-c1cn(-c2cc(Cl)cc(OCCC(F)(F)F)c2)c(=O)n(-c2cccnc2)c1=O" 0.33

====

Experiment: Mouse liver microsome stability assay
Conditions: CD-1, mouse, microsomes
Give half-life at 3 µM for every item shown.
One number for each entry, in min.

# annotated cases, reported half-life at 3 µM shown
# compound, half-life at 3 µM, min
rows = [
    ("O=c1[nH]cccc1-c1cn(-c2cc(Cl)cc(OCc3nccn3C(F)F)c2)c(=O)n(-c2cccnc2)c1=O [Compound 41]", 14.7),
    ("O=c1[nH]cccc1-c1cn(-c2cc(Cl)cc(OCc3ccccc3Cl)c2)c(=O)n(-c2cccnc2)c1=O [Compound 43]", 3),
]

In the following, a different compound is considered.
Give the measured half-life at 3 µM of O=c1[nH]cccc1-c1cn(-c2cc(Cl)cc(OCc3ncsc3C(F)(F)F)c2)c(=O)n(-c2cccnc2)c1=O [Compound 45] . 11

====

Assay: Pharmacokinetics after single IV and PO administration
Assay type: in vivo, Male Sprague Dawley rats
Conditions: male, Sprague-Dawley, rat; plasma, IV 0.25 mg/kg; read-out: C0 (back extrapolated concentration)
reported.endpoint: C0 (µg/mL)
Give bare numbers, in µg/mL.

Name the reported C0 value associated with the compound O=c1[nH]cccc1-c1cn(-c2cc(Cl)cc(OCCC(F)(F)F)c2)c(=O)n(-c2cccnc2)c1=O [Compound 36] 1.33
